experiment: small-molecule binders of probe aLefty1, primary screen, biochemical, small-molecule microarray, 635/667 nm fluorescence (AID 1153); details: higher = more signal;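 also: score merges spot fluorescence with signal-to-noise ratio from the scanned slide images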
List of composite z-score values.
Form rule: numeric answer, no unit written next to it.

1. Cc1ccccc1C(O)C1C=CC2C(=O)N(C)C(=O)C2N1N(c1ccccc1)c1ccccc1 (configuration not stated) ... 0.998
2. COC(=O)[C@@]1(Cc2ccc(F)cc2)[C@H]2c3cc(C(=O)N4CCCC4)n(CCc4ccc(O)c(O)c4)c3C[C@H]2CN1C(=O)c1ccccc1 ... 1.09
3. CCCCC=C[C@@H](NC(=O)c1ccc(-c2ccccc2)cc1)c1ccccc1 ... 0.258

Exercise: Quick one: composite z-score of CN1C(=O)C2C=CC(C(O)c3ccccn3)N(N(c3ccccc3)c3ccccc3)C2C1=O (configuration not stated) ?
Solution: 0.0774

Exercise: I'd like to know its composite z-score. The molecule in question is `CCOC(=O)C[C@H]1[C@H](OC(=O)c2ccc(C(=O)c3ccccc3)cc2)[C@@H](NC(=O)Cc2ccc(OC)cc2)c2cc(OCCCO)ccc2N1C(=O)c1ccccc1`
Solution: -0.0762

Exercise: Fill in the blank: the reported composite z-score of `CCCCCCc1nc(C2CC2)cc2c1[Si](C(C)C)(C(C)C)O[C@H]2c1ccccc1` is ____.
Solution: -0.23

Exercise: Data request, read-out composite z-score, for `C=CCOC(=O)[C@H]1[C@@H]2C(=O)O[C@@H](c3ccccc3)[C@@H](c3ccccc3)N2[C@@H](c2ccc(OCCOC(=O)[C@@H]3C[C@@H]4C(=O)N5CCC[C@H]5C(=O)N4[C@@H]3c3ccc(O)cc3)cc2)[C@]12C(=O)Nc1ccc(I)cc12`
Solution: 0.293
